- Test system: Receptor-type tyrosine-protein kinase FLT3 (Homo sapiens), P36888 [D835Y]
- run-conditions: at 0.1 µM
Form field: inhibition (one value per entry).

| compound | target-desc | inhibition / % |
| --- | --- | --- |
| NC(=O)c1cccc(Nc2nccc(Nc3cccc4[nH]ncc34)n2)c1 | Receptor-type tyrosine-protein kinase FLT3 (Homo sapiens), P36888 [D835Y] | 10.4 |
| CC1=C(C(=O)Nc2ccc3[nH]ncc3c2)C(c2ccc3ccccc3c2)CC(=O)N1 (stereo not given) | Receptor-type tyrosine-protein kinase FLT3 (Homo sapiens), P36888 [D835Y] | 0.1 |
| CNC(=O)c1cncc(/C=C/c2c(Cl)cccc2Cl)c1 | Receptor-type tyrosine-protein kinase FLT3 (Homo sapiens), P36888 [D835Y] | -3.3 |
| CS(=O)(=O)Nc1ccc(N/C=C2\C(=O)Nc3ccccc32)cc1 | Receptor-type tyrosine-protein kinase FLT3 (Homo sapiens), P36888 [D835Y] | 18.7 |
| Nc1nc(-c2ccc3c(c2)C(=Cc2cc(Br)c(O)c(Br)c2)C(=O)N3)cs1 | Receptor-type tyrosine-protein kinase FLT3 (Homo sapiens), P36888 [D835Y] | -2.57 |
| CCn1c(-c2nonc2N)nc2cncc(C(=O)N3CC[C@H](N)C3)c21 | Receptor-type tyrosine-protein kinase FLT3 (Homo sapiens), P36888 [D835Y] | -5.73 |
| COc1cc2ncn(-c3cc(O[C@@H](C)c4ccccc4Cl)c(C(N)=O)s3)c2cc1OC | Receptor-type tyrosine-protein kinase FLT3 (Homo sapiens), P36888 [D835Y] | -3.12 |
| [O-][S+]1CCN(Cc2ccc(-c3ccc4ncnc(Nc5ccc(OCc6ccccc6)c(F)c5)c4c3)o2)CC1 | Receptor-type tyrosine-protein kinase FLT3 (Homo sapiens), P36888 [D835Y] | -4.8 |
| CCn1c(-c2nonc2N)nc2cnc(Oc3cccc(NC(=O)c4ccc(OCCN5CCOCC5)cc4)c3)cc21 | Receptor-type tyrosine-protein kinase FLT3 (Homo sapiens), P36888 [D835Y] | -3.34 |
| Cc1nnc(-c2ccc(C)c(-c3ccc(C(=O)Nc4cccc(C#N)c4)cc3)c2)o1 | Receptor-type tyrosine-protein kinase FLT3 (Homo sapiens), P36888 [D835Y] | 0.86 |
| O=C1NC(=O)C(c2ccccc2Cl)=C1Nc1cccc(O)c1 | Receptor-type tyrosine-protein kinase FLT3 (Homo sapiens), P36888 [D835Y] | 3.17 |
| NS(=O)(=O)c1cccc(-c2ccc3c(NC(=O)C4CC4)n[nH]c3c2)c1 | Receptor-type tyrosine-protein kinase FLT3 (Homo sapiens), P36888 [D835Y] | -3.17 |
| COc1cc2c(cc1Nc1nc(N3CCc4ccccc43)c3cc[nH]c3n1)N(C(=O)CN(C)C)CC2 | Receptor-type tyrosine-protein kinase FLT3 (Homo sapiens), P36888 [D835Y] | -2.55 |
| CCc1cccc(NC(=O)Nc2ccc(Oc3ccc4nc(NC(=O)OC)[nH]c4c3)cc2)c1 | Receptor-type tyrosine-protein kinase FLT3 (Homo sapiens), P36888 [D835Y] | 1.59 |
| CC(C)=Cc1cccc2c1/C(=N/Nc1ccc(S(N)(=O)=O)cc1)C(=O)N2 | Receptor-type tyrosine-protein kinase FLT3 (Homo sapiens), P36888 [D835Y] | 15.6 |
| CCCN1CCC=C(c2ccc(Nc3nc(Nc4ccccc4C(N)=O)c4cc[nH]c4n3)c(C)c2)C1 | Receptor-type tyrosine-protein kinase FLT3 (Homo sapiens), P36888 [D835Y] | 3.17 |
| COc1ccc2cc(-c3c(-c4ccncc4)nc(-c4ccc([S+](C)[O-])cc4)n3C)ccc2c1 (stereo not given) | Receptor-type tyrosine-protein kinase FLT3 (Homo sapiens), P36888 [D835Y] | -0.4 |
| N#Cc1c(NC(=O)c2cccc3ccccc23)sc2c1CCCC2 | Receptor-type tyrosine-protein kinase FLT3 (Homo sapiens), P36888 [D835Y] | 3.1 |
| O=C1Nc2ccc(C(=O)c3ccco3)cc2C1=Cc1cc(Cl)c(O)c(Cl)c1 | Receptor-type tyrosine-protein kinase FLT3 (Homo sapiens), P36888 [D835Y] | 4.82 |
| Cc1cc(O)cc(C)c1/C=C/c1cncc(-c2nn[nH]n2)c1 | Receptor-type tyrosine-protein kinase FLT3 (Homo sapiens), P36888 [D835Y] | -2.23 |
| Nc1ncnc2occ(-c3ccc(NC(=O)Nc4cccc(C(F)(F)F)c4)cc3)c12 | Receptor-type tyrosine-protein kinase FLT3 (Homo sapiens), P36888 [D835Y] | 18.4 |
| CS(=O)(=O)CCNCc1ccc(-c2ccc3ncnc(Nc4ccc(OCc5ccccc5)c(Cl)c4)c3c2)o1 | Receptor-type tyrosine-protein kinase FLT3 (Homo sapiens), P36888 [D835Y] | -3.65 |
| CCn1c(-c2nonc2N)nc2ccncc21 | Receptor-type tyrosine-protein kinase FLT3 (Homo sapiens), P36888 [D835Y] | -3.67 |
| O=C(Nc1n[nH]c2nc(-c3ccco3)c(Br)cc12)C1CC1 | Receptor-type tyrosine-protein kinase FLT3 (Homo sapiens), P36888 [D835Y] | -1.82 |
| Nc1nc(-c2ccccn2)c(-c2ccc3ncccc3n2)s1 | Receptor-type tyrosine-protein kinase FLT3 (Homo sapiens), P36888 [D835Y] | -0.61 |
| COc1cc(C=NNc2ncnc3c2cnn3-c2ccccc2)ccc1O | Receptor-type tyrosine-protein kinase FLT3 (Homo sapiens), P36888 [D835Y] | 17.7 |
| Nc1ncnc2occ(-c3ccc(NC(=O)Nc4cc(C(F)(F)F)cc(C(F)(F)F)c4)cc3)c12 | Receptor-type tyrosine-protein kinase FLT3 (Homo sapiens), P36888 [D835Y] | 12.8 |
| CS(=O)(=O)CCN(CC#N)Cc1ccc(-c2ccc3ncnc(Nc4ccc(OCc5cccc(F)c5)c(Cl)c4)c3c2)o1 | Receptor-type tyrosine-protein kinase FLT3 (Homo sapiens), P36888 [D835Y] | -4.23 |
| COc1cc2ncn(-c3cc(O[C@H](C)c4ccccc4Cl)c(C(N)=O)s3)c2cc1OC | Receptor-type tyrosine-protein kinase FLT3 (Homo sapiens), P36888 [D835Y] | 5.85 |
| COc1ccccc1Nc1ncc(-c2ccccc2)o1 | Receptor-type tyrosine-protein kinase FLT3 (Homo sapiens), P36888 [D835Y] | 5.09 |
| COC(=O)Nc1nc2cc(Oc3ccc(NC(=O)Nc4cccc(C(=O)O)c4)cc3)ccc2[nH]1 | Receptor-type tyrosine-protein kinase FLT3 (Homo sapiens), P36888 [D835Y] | 3.31 |
| CCn1c(-c2nonc2N)nc2c(N3CCCC3)nccc21 | Receptor-type tyrosine-protein kinase FLT3 (Homo sapiens), P36888 [D835Y] | -4.93 |
| O=C1NC(=O)C(N2CCc3ccccc32)=C1c1ccc(Cl)cc1 | Receptor-type tyrosine-protein kinase FLT3 (Homo sapiens), P36888 [D835Y] | -2.14 |
| Fc1cccc(COc2ccc(Nc3ncnc4sc(-c5cccs5)cc34)cc2Cl)c1 | Receptor-type tyrosine-protein kinase FLT3 (Homo sapiens), P36888 [D835Y] | -2.12 |
| CN(C)c1cc2c(Nc3ccc4nc(Cc5ccccc5)[nH]c4c3)ncnc2cn1 | Receptor-type tyrosine-protein kinase FLT3 (Homo sapiens), P36888 [D835Y] | -0.65 |

###

- target-desc: Ephrin type-A receptor 4 (Homo sapiens);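 also: mean inhibition of EPHA4 from the GSK PKIS screening set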
- run-conditions: at 0.1 µM
metric-name: inhibition (%)

| structure-smiles-string | quantitative-result |
| --- | --- |
| COC(=O)Nc1nc2cc(Oc3cccc(NC(=O)Nc4cc(C(F)(F)F)ccc4F)c3)ccc2[nH]1 | 1.63 |
| Cc1cccc(-c2n[nH]cc2-c2ccc3ncccc3n2)n1 | 3.45 |
| CNC(=O)c1cncc(/C=C/c2c(Cl)cccc2Cl)c1 | 7.99 |
| Cc1ccc(C(=O)NC2CCCCC2)cc1-c1ccc(C(=O)NCC2CC2)cc1 | 8.35 |
| NS(=O)(=O)c1cccc(-c2ccc3c(NC(=O)C4CC4)n[nH]c3c2)c1 | -5.25 |
| N#Cc1c(NC(=O)c2cccc3ccccc23)sc2c1CCCC2 | 6.92 |
| CN(C)c1cc2c(Nc3ccc4nc(Cc5ccccc5)[nH]c4c3)ncnc2cn1 | 11.6 |

###

- target-desc: Ribosomal protein S6 kinase alpha-4 (Homo sapiens);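 also: values are mean inhibition of MSK2, from GSK PKIS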
- run-conditions: at 0.1 µM

| compound | inhibition / % |
| --- | --- |
| CS(=O)(=O)CCNCc1ccc(-c2ccc3ncnc(Nc4ccc(OCc5ccccc5)c(Cl)c4)c3c2)o1 | 0.04 |
| Fc1cccc(COc2ccc(Nc3ncnc4cc(-c5ccc[nH]5)sc34)cc2Cl)c1 | 3.11 |
| Cc1ccc(NC(=O)c2ccnc(N3CCCC3)c2)cc1-c1ccc(C(=O)NCC2CC2)cc1 | 3.43 |
| CS(=O)(=O)CCN(CC#N)Cc1ccc(-c2ccc3ncnc(Nc4ccc(OCc5cccc(F)c5)c(Cl)c4)c3c2)o1 | 1.06 |
| COC(=O)Nc1nc2cc(Oc3cccc(NC(=O)Nc4cc(C(F)(F)F)ccc4F)c3)ccc2[nH]1 | -0.69 |
| Nc1nc(-c2ccccn2)c(-c2ccc3ncccc3n2)s1 | 1.3 |
| O=C1NC(=O)C(N2CCc3ccccc32)=C1c1ccc(Cl)cc1 | 1.73 |
| CCCN1CCC=C(c2ccc(Nc3nc(Nc4ccccc4C(N)=O)c4cc[nH]c4n3)c(C)c2)C1 | 1.37 |
| CN1CCC(C(=O)Nc2n[nH]c3nnc(-c4ccccc4)cc23)CC1 | 2.89 |
| Fc1cccc(COc2ccc(Nc3ncnc4sc(-c5cccs5)cc34)cc2Cl)c1 | 1.59 |
| CNC(=O)c1cncc(/C=C/c2c(Cl)cccc2Cl)c1 | 2.15 |
| Cc1ccc(C(=O)NC2CCCCC2)cc1-c1ccc(C(=O)NCC2CC2)cc1 | 1.19 |
| CS(=O)(=O)Nc1ccc(N/C=C2\C(=O)Nc3ccccc32)cc1 | -0.53 |
| CS(=O)(=O)CCNCc1ccc(-c2ccc3ncnc(Nc4ccc(OCc5cccc(F)c5)c(C(F)(F)F)c4)c3c2)o1 | 2.67 |
| Cc1nn(C)c2cc(N(C)c3ccnc(Nc4cccc(S(N)(=O)=O)c4)n3)ccc12 | 4.88 |
| Cn1cc(C=C2C(=O)Nc3cccnc32)c2ccccc21 | 2.56 |
| COc1ccc2cc(-c3c(-c4ccncc4)nc(-c4ccc([S+](C)[O-])cc4)n3C)ccc2c1 (stereo unspecified) | 1.31 |
| COC(=O)Nc1nc2cc(Oc3ccc(NC(=O)Nc4cccc(C(=O)O)c4)cc3)ccc2[nH]1 | 1.24 |
| CCn1c(-c2nonc2N)nc2cncc(C(=O)N3CCNCC3)c21 | 3.28 |
| CS(=O)(=O)CCNCc1nc(-c2ccc3ncnc(Nc4ccc(F)c(Cl)c4)c3c2)cs1 | 1.32 |
| CCn1c(-c2nonc2N)nc2c(N3CCCC3)nccc21 | -0.68 |
| c1cnn2ncc(-c3ccnc(Nc4ccc5c(c4)OCCO5)n3)c2c1 | 2.97 |
| COc1ccc(-c2coc3ncnc(N)c23)cc1 | 1.64 |
| O=C1NC(=O)C(c2ccccc2Cl)=C1Nc1cccc(O)c1 | 1.39 |
| O=C1Nc2ccc(C(=O)c3ccco3)cc2C1=Cc1cc(Cl)c(O)c(Cl)c1 | 0.41 |
| CCn1c(-c2nonc2N)nc2cnc(Oc3cccc(NC(=O)c4ccc(OCCN5CCOCC5)cc4)c3)cc21 | 56.7 |
| COc1cc2ncn(-c3cc(O[C@H](C)c4ccccc4Cl)c(C(N)=O)s3)c2cc1OC | 4.32 |
| [O-][S+]1CCN(Cc2ccc(-c3ccc4ncnc(Nc5ccc(OCc6ccccc6)c(F)c5)c4c3)o2)CC1 | -0.07 |
| COc1cc2ncn(-c3cc(O[C@@H](C)c4ccccc4Cl)c(C(N)=O)s3)c2cc1OC | 4.79 |
| COc1ccc(-c2ccncc2)cc1C(N)=O | 2.85 |
| COc1ccccc1Nc1ncc(-c2ccccc2)o1 | 4.65 |
